Molecular target: T1, Rad6-Rad18 complex, purified (yeast, UniProt P10862 1-487; P06104 1-172)
T1 sequence (looked up) 1: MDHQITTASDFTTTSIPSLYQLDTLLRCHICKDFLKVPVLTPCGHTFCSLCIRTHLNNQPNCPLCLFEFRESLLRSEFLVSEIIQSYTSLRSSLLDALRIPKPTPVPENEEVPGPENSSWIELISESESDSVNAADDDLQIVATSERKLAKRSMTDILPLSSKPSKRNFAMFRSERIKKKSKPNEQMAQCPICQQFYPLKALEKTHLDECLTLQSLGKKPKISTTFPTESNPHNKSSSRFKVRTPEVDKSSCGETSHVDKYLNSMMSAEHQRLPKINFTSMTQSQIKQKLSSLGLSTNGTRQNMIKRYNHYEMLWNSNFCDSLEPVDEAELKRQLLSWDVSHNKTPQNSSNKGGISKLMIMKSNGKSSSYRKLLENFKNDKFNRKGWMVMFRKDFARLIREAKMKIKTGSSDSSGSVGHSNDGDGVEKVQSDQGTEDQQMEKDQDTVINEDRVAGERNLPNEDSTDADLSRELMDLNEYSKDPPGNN
T1 sequence (looked up) 2: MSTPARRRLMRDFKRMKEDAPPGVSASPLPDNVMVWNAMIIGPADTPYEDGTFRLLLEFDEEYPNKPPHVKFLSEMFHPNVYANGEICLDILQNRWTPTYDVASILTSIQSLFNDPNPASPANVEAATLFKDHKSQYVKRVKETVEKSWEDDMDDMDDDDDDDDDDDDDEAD
Assay: BLI
No end group written: not given here. *: point of attachment. Biotin = O=C1N[C@H]2[C@H](CS[C@H]2CCCCC(=O)*)N1; Ahx = NCCCCCC(=O)O
endpoint: pKd
pKd is defined as minus the log10 of a concentration measured in mol/L.

| binder | endpoint | observedValue |
| --- | --- | --- |
| {Biotin-Ahx}-ESSKNLSFGEKRLLFSRKRP [N-terminally biotinylated peptide containing PIP2 of pol η] | pKd | 5.43 |

Now for another entry.
// recorded pKd for {Biotin-Ahx}-QKKQVTSSKNILSFFTRKK [N-terminally biotinylated peptide containing PIP1 of pol η] : 5.92
